# Tested on: Plasmodium berghei
# ASSAY_TEXT: Luciferase/luciferin-expressing antifolate-resistant parasites were used to infect a culture of HepG2 cells that were pre-incubated with compounds. Infected hepatocytes emit light due to the luciferase reaction. Assay results are presented as the percent inhibition of light emission compared to control. […]
# Format: functional
# CONDITION_CONTEXT: sporozoite, HEPG2TOX_HILL_SLOPE 1.03, HEPG2TOX_R_SQUARED 0.976, PBLUC_HILL_SLOPE 0.599, PBLUC_R_SQUARED 0.712, read-out: LUCIFERASE INFECTION ASSAY - IC50
ENDPOINT: pIC50
Would you please state pIC50, meaning minus log10 of the concentration in mol/L, as a bare number?

Incoming: Under Plasmodium berghei: pIC50 value of `Nn1c(SCC(=O)c2c[nH]c3ccccc23)nnc1C(F)(F)F` ?
Outgoing: 6.65

====

# Test system: Plasmodium berghei
# ASSAY_TEXT: Luciferase/luciferin-expressing antifolate-resistant parasites were used to infect a culture of HepG2 cells that were pre-incubated with compounds. Infected hepatocytes emit light due to the luciferase reaction. Assay results are presented as the percent inhibition of light emission compared to control. […]
# Assay type: functional
# CONDITION_CONTEXT: sporozoite, read-out: LUCIFERASE INFECTION ASSAY - IC90
ENDPOINT: log10 of IC90 (log10 of the value in µM)
Friendly reminder: values = log10 of IC90, unit µM.

A selection of reference data follows.
COMPOUND: Cc1ccc(NC(=O)Nc2cnn(-c3ccc([N+](=O)[O-])cc3)c2C(F)(F)F)cc1F
MEASURED_VALUE: 0.54

COMPOUND: CC(C)(C)c1cc(NC(=O)Nc2ccc(C#N)cc2)n(-c2ccccc2)n1
MEASURED_VALUE: -1.31

COMPOUND: CCN(CC)S(=O)(=O)c1ccc(N2CCOCC2)c(NC(=O)c2cc(-c3cc(OC)c(OC)c(OC)c3)nc3ccccc23)c1
MEASURED_VALUE: 0.93

COMPOUND: NC(Cc1ccccc1)c1csc(Nc2ccc(-c3ccccc3)nn2)n1 (stereo not given)
MEASURED_VALUE: 0.76

Consider now this further compound.
Incoming: Form field: reported log10 of IC90 of `Cn1c(-c2ccccc2)c(/C=N/Nc2ccnc3cc(Cl)ccc23)c2ccccc21`
Outgoing: 0.81

====

# System: Plasmodium berghei
# ASSAY_TEXT: Luciferase/luciferin-expressing antifolate-resistant parasites were used to infect a culture of HepG2 cells that were pre-incubated with compounds. Infected hepatocytes emit light due to the luciferase reaction. Assay results are presented as the percent inhibition of light emission compared to control. […]
# Type: functional
# CONDITION_CONTEXT: sporozoite, HEPG2TOX_HILL_SLOPE 1.11, HEPG2TOX_R_SQUARED 0.992, read-out: LUCIFERASE INFECTION ASSAY - IC50
pIC50: −log10 of the molar value.
ENDPOINT: pIC50

Incoming: Form field: reported pIC50 of `COc1ccc2cc(/C(C)=N/OC(=O)Nc3ccccc3)ccc2c1`
Outgoing: < 5.01

====

# Test system: Plasmodium berghei
# ASSAY_TEXT: Luciferase/luciferin-expressing antifolate-resistant parasites were used to infect a culture of HepG2 cells that were pre-incubated with compounds. Infected hepatocytes emit light due to the luciferase reaction. Assay results are presented as the percent inhibition of light emission compared to control. […]
# Type: functional
# CONDITION_CONTEXT: sporozoite, HEPG2TOX_HILL_SLOPE 2.23, HEPG2TOX_R_SQUARED 0.93, PBLUC_HILL_SLOPE 4.09, PBLUC_R_SQUARED 0.44, read-out: LUCIFERASE INFECTION ASSAY - IC50
ENDPOINT: IC50
# include the unit after the value

Incoming: Form field: reported IC50 of `CN(CC(=O)Nc1ccc(Cl)c(C(F)(F)F)c1)c1nc(CN2CCCCC2)nc2sc3c(c12)CCCC3`
Outgoing: 5.84 µM

====

# System: Plasmodium berghei
# ASSAY_TEXT: Luciferase/luciferin-expressing antifolate-resistant parasites were used to infect a culture of HepG2 cells that were pre-incubated with compounds. Infected hepatocytes emit light due to the luciferase reaction. Assay results are presented as the percent inhibition of light emission compared to control. […]
# Type: functional
# CONDITION_CONTEXT: sporozoite, FFLUC_HILL_SLOPE 5.73, FFLUC_R_SQUARED 0.583, HEPG2TOX_HILL_SLOPE 3.25, HEPG2TOX_R_SQUARED 0.992, PBLUC_HILL_SLOPE 9.74, PBLUC_R_SQUARED 0.283, read-out: LUCIFERASE INFECTION ASSAY - IC50
ENDPOINT: IC50 (µM)
Write the answer as a number in µM, unit excluded.

Incoming: Form field: reported IC50 of `CC(C)n1c(Sc2ncc([N+](=O)[O-])s2)nc2ccccc21`
Outgoing: 3.48

====

# Tested on: Plasmodium berghei
# ASSAY_TEXT: Luciferase/luciferin-expressing antifolate-resistant parasites were used to infect a culture of HepG2 cells that were pre-incubated with compounds. Infected hepatocytes emit light due to the luciferase reaction. Assay results are presented as the percent inhibition of light emission compared to control. […]
# Format: functional
# CONDITION_CONTEXT: sporozoite, FFLUC_HILL_SLOPE 11.9, FFLUC_R_SQUARED 0.277, PBLUC_HILL_SLOPE 2.4, PBLUC_R_SQUARED 0.763, read-out: LUCIFERASE INFECTION ASSAY - IC50
ENDPOINT: pIC50
Would you please state pIC50, meaning minus log10 of the concentration in mol/L, as a bare number?

Incoming: Form field: reported pIC50 of `COc1ccc(CCn2nc(C(=O)NC3CC3)c3c2CCN(C(=O)c2cc4cc(C)ccc4[nH]2)C3)cc1`
Outgoing: 5.55

====

# Tested on: Plasmodium berghei
# ASSAY_TEXT: Luciferase/luciferin-expressing antifolate-resistant parasites were used to infect a culture of HepG2 cells that were pre-incubated with compounds. Infected hepatocytes emit light due to the luciferase reaction. Assay results are presented as the percent inhibition of light emission compared to control. […]
# Type: functional
# CONDITION_CONTEXT: sporozoite, PBLUC_HILL_SLOPE 22.1, PBLUC_R_SQUARED 0.617, read-out: LUCIFERASE INFECTION ASSAY - IC50
ENDPOINT: IC50 (µM)
Write the answer as a number in µM, unit excluded.

Incoming: Under Plasmodium berghei: IC50 value of Cc1nn(-c2ccccn2)c2c1C(c1ccccc1Cl)C1=C(N2)c2ccccc2C1=O (stereo unspecified) ?
Outgoing: 9.17

====

# Tested on: Plasmodium berghei
# ASSAY_TEXT: Luciferase/luciferin-expressing antifolate-resistant parasites were used to infect a culture of HepG2 cells that were pre-incubated with compounds. Infected hepatocytes emit light due to the luciferase reaction. Assay results are presented as the percent inhibition of light emission compared to control. […]
# Format: functional
# CONDITION_CONTEXT: sporozoite, HEPG2TOX_HILL_SLOPE 1.06, HEPG2TOX_R_SQUARED 0.922, PBLUC_HILL_SLOPE 24.2, PBLUC_R_SQUARED 0.349, read-out: LUCIFERASE INFECTION ASSAY - IC50
ENDPOINT: IC50 (nM)
Write the answer as a number in nM, unit excluded.

Incoming: Form field: reported IC50 of O=C1NC2(CCOc3ccccc32)C(=O)N1Cc1cc2ccccc2nc1Cl (stereo unspecified)
Outgoing: 1250

====

# Test system: Plasmodium berghei
# ASSAY_TEXT: Luciferase/luciferin-expressing antifolate-resistant parasites were used to infect a culture of HepG2 cells that were pre-incubated with compounds. Infected hepatocytes emit light due to the luciferase reaction. Assay results are presented as the percent inhibition of light emission compared to control. […]
# Format: functional
# CONDITION_CONTEXT: sporozoite, PBLUC_HILL_SLOPE 1.1, PBLUC_R_SQUARED 0.432, read-out: LUCIFERASE INFECTION ASSAY - IC50
ENDPOINT: IC50 (µM)
Write the answer as a number in µM, unit excluded.

Incoming: Under Plasmodium berghei: IC50 value of `Cc1cc(C)c(NC(=O)CNc2nn3cc(-c4ccccc4)nc3s2)c(C)c1` ?
Outgoing: 1.54

====

# Test system: Plasmodium berghei
# ASSAY_TEXT: Luciferase/luciferin-expressing antifolate-resistant parasites were used to infect a culture of HepG2 cells that were pre-incubated with compounds. Infected hepatocytes emit light due to the luciferase reaction. Assay results are presented as the percent inhibition of light emission compared to control. […]
# Assay type: functional
# CONDITION_CONTEXT: sporozoite, PBLUC_HILL_SLOPE 3.59, PBLUC_R_SQUARED 0.419, read-out: LUCIFERASE INFECTION ASSAY - IC50
ENDPOINT: pIC50
Would you please state pIC50, meaning minus log10 of the concentration in mol/L, as a bare number?

Incoming: Form field: reported pIC50 of `Fc1ccc(-c2cnc3cnc(-c4ccccc4Cl)cn23)cc1Cl`
Outgoing: 5.09
